Assay: In-vivo radioactivity distribution experiment using normal mice (Example 2)
Conditions: normal mice, intravenous, 30 min; Example 2 numbering
PROPERTY_NAME: In-vivo radioactivity distribution: liver

The molecule listed as CNc1ccc(C(=O)/C=C/c2ccc(I)cc2)cc1 [Compound 7 in Example 2, 4-iodo-4′-methylaminochalcone] shows In-vivo radioactivity distribution: liver equal to 6.77 (1.21) percent of the dose/g

The molecule listed as CN(C)c1ccc(C=CC(=O)c2ccc(I)s2)cc1 [Compound 14 in Example 2] shows In-vivo radioactivity distribution: liver equal to 5.95 (1.19) percent of the dose/g

The molecule listed as CNc1ccc(C=CC(=O)c2ccc(I)s2)cc1 [Compound 13 in Example 2] shows In-vivo radioactivity distribution: liver equal to 5.10 (1.12) percent of the dose/g

The molecule listed as CN(C)c1ccc(C(=O)/C=C/c2ccc(I)cc2)cc1 [Compound 10 in Example 2, 4-iodo-4′-dimethylaminochalcone] shows In-vivo radioactivity distribution: liver equal to 6.69 (1.21) percent of the dose/g

###

Test: In-vivo radioactivity distribution experiment using normal mice (Example 2)
Details: normal mice, intravenous, 10 min; Example 2 numbering
PROPERTY_NAME: In-vivo radioactivity distribution: lung

The compound listed as CN(C)c1ccc(C(=O)/C=C/c2ccc(I)cc2)cc1 shows In-vivo radioactivity distribution: lung equal to 3.92 (0.76) percent of the dose/g

The compound listed as CNc1ccc(C(=O)/C=C/c2ccc(I)cc2)cc1 shows In-vivo radioactivity distribution: lung equal to 4.94 (1.73) percent of the dose/g

The compound listed as CN(C)c1ccc(C=CC(=O)c2ccc(I)s2)cc1 shows In-vivo radioactivity distribution: lung equal to 5.17 (0.69) percent of the dose/g

The compound listed as CNc1ccc(C=CC(=O)c2ccc(I)s2)cc1 shows In-vivo radioactivity distribution: lung equal to 6.33 (1.42) percent of the dose/g

###

Assay: In-vivo radioactivity distribution experiment using normal mice (Example 2)
Conditions: normal mice, intravenous, 2 min; Example 2 numbering
Task for the reader: assign each of the following molecules its reported In-vivo radioactivity distribution: stomach.

The molecule listed as CN(C)c1ccc(C=CC(=O)c2ccc(I)s2)cc1 shows In-vivo radioactivity distribution: stomach equal to 1.21(0.27) percent of the dose

The molecule listed as CNc1ccc(C(=O)/C=C/c2ccc(I)cc2)cc1 shows In-vivo radioactivity distribution: stomach equal to 1.06 (0.67) percent of the dose

The molecule listed as CN(C)c1ccc(C(=O)/C=C/c2ccc(I)cc2)cc1 shows In-vivo radioactivity distribution: stomach equal to 0.76 (0.13) percent of the dose

The molecule listed as CNc1ccc(C=CC(=O)c2ccc(I)s2)cc1 shows In-vivo radioactivity distribution: stomach equal to 1.48 (0.39) percent of the dose

###

Task for the reader: assign each of the following compounds its reported pKi.
Target: Aβ(1-42) aggregate (Homo sapiens, UniProt P05067)
Construct: Amyloid β protein (Human, 1-42) [TFA form] was purchased from Peptide Institute, Inc; purchased Peptide Institute, Inc
Sequence (P05067 672-713 limits assumed): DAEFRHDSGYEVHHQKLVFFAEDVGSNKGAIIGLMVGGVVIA
Experiment: Binding inhibition experiment using Aβ(1-42) aggregate, Ki values (Example 2)
Settings: radioactive ligand [^125I]CL-NMe2; mean ± standard error of 3 experiments (compound 4: 6 experiments); compound numbers of Example 2; read-out: Ki values calculated by inhibition experiment
The quantity pKi is defined as the negative base-10 logarithm of the molar concentration.

Fill in: Aβ(1-42) aggregate (Homo sapiens, UniProt P05067) pKi for Nc1ccc(C=CC(=O)c2ccc(I)cc2)cc1 [CL-NH2, reference compound] = 6.98

Fill in: Aβ(1-42) aggregate (Homo sapiens, UniProt P05067) pKi for COc1ccc(/C=C/C(=O)c2ccc(I)cc2)cc1OC = 6.65

Fill in: Aβ(1-42) aggregate (Homo sapiens, UniProt P05067) pKi for COc1cc(/C=C/C(=O)c2ccc(I)cc2)ccc1O [Compound 40 in Example 2, 4-hydroxy-4′-iodo-3-methoxychalcone] = 5.94

Fill in: Aβ(1-42) aggregate (Homo sapiens, UniProt P05067) pKi for CN(C)c1ccc(C=CC(=O)c2ccc(I)cc2)s1 = 6.95

Fill in: Aβ(1-42) aggregate (Homo sapiens, UniProt P05067) pKi for COc1ccc(/C=C/C(=O)c2ccc(I)cc2)cc1O [Compound 41 in Example 2, 3-hydroxy-4′-iodo-4-methoxychalcone] = 6.80

Fill in: Aβ(1-42) aggregate (Homo sapiens, UniProt P05067) pKi for CNc1ccc(C(=O)C=Cc2ccc(Br)s2)cc1 = 6.70

Fill in: Aβ(1-42) aggregate (Homo sapiens, UniProt P05067) pKi for CN(C)c1ccc(C(=O)/C=C/c2ccc(I)cc2)cc1 = 7.88

Fill in: Aβ(1-42) aggregate (Homo sapiens, UniProt P05067) pKi for CN(C)c1ccc(C=CC(=O)c2ccc(Br)o2)cc1 = 6.90

Fill in: Aβ(1-42) aggregate (Homo sapiens, UniProt P05067) pKi for CN(C)c1ccc(C=CC(=O)c2ccc(Br)o2)s1 = 5.58

Fill in: Aβ(1-42) aggregate (Homo sapiens, UniProt P05067) pKi for CN(C)c1ccc(C=CC(=O)c2ccc(I)cc2)o1 = 5.95

Fill in: Aβ(1-42) aggregate (Homo sapiens, UniProt P05067) pKi for CN(C)c1ccc(C=CC(=O)c2ccc(I)s2)cc1 = 8.41

Fill in: Aβ(1-42) aggregate (Homo sapiens, UniProt P05067) pKi for Nc1ccc(C(=O)C=Cc2ccc(Br)s2)cc1 = 6.32

Fill in: Aβ(1-42) aggregate (Homo sapiens, UniProt P05067) pKi for CNc1ccc(C=CC(=O)c2ccc(I)s2)cc1 = 7.85

Fill in: Aβ(1-42) aggregate (Homo sapiens, UniProt P05067) pKi for CN(C)c1ccc(C=CC(=O)c2ccc(I)s2)o1 = 5.79

Fill in: Aβ(1-42) aggregate (Homo sapiens, UniProt P05067) pKi for CN(C)c1ccc(C(=O)C=Cc2ccc(Br)s2)cc1 = 6.97

Fill in: Aβ(1-42) aggregate (Homo sapiens, UniProt P05067) pKi for CN(C)c1ccc(C=CC(=O)c2ccc(I)s2)s1 = 6.86

Fill in: Aβ(1-42) aggregate (Homo sapiens, UniProt P05067) pKi for O=C(C=Cc1cccs1)c1ccc(I)cc1 = 6.99

Fill in: Aβ(1-42) aggregate (Homo sapiens, UniProt P05067) pKi for CNc1ccc(C=CC(=O)c2ccc(I)cc2)cc1 [CL-NHMe, reference compound] = 8.20

###

Task for the reader: assign each of the following molecules its reported In-vivo radioactivity distribution: heart.
Assay: In-vivo radioactivity distribution experiment using normal mice (Example 2)
Details: normal mice, intravenous, 30 min; Example 2 numbering

The molecule listed as CNc1ccc(C=CC(=O)c2ccc(I)s2)cc1 shows In-vivo radioactivity distribution: heart equal to 1.45 (0.17) percent of the dose/g

The molecule listed as CNc1ccc(C(=O)/C=C/c2ccc(I)cc2)cc1 shows In-vivo radioactivity distribution: heart equal to 0.98 (0.20) percent of the dose/g

The molecule listed as CN(C)c1ccc(C=CC(=O)c2ccc(I)s2)cc1 shows In-vivo radioactivity distribution: heart equal to 1.48 (0.78) percent of the dose/g

The molecule listed as CN(C)c1ccc(C(=O)/C=C/c2ccc(I)cc2)cc1 shows In-vivo radioactivity distribution: heart equal to 1.10 (0.16) percent of the dose/g

###

Task for the reader: assign each of the following compounds its reported In-vivo radioactivity distribution: lung.
Experiment: In-vivo radioactivity distribution experiment using normal mice (Example 2)
Settings: normal mice, intravenous, 60 min; Example 2 numbering

The compound listed as CN(C)c1ccc(C(=O)/C=C/c2ccc(I)cc2)cc1 shows In-vivo radioactivity distribution: lung equal to 1.71 (0.29) percent of the dose/g

The compound listed as CNc1ccc(C=CC(=O)c2ccc(I)s2)cc1 shows In-vivo radioactivity distribution: lung equal to 3.11 (0.66) percent of the dose/g

The compound listed as CNc1ccc(C(=O)/C=C/c2ccc(I)cc2)cc1 shows In-vivo radioactivity distribution: lung equal to 1.57 (0.23) percent of the dose/g

The compound listed as CN(C)c1ccc(C=CC(=O)c2ccc(I)s2)cc1 shows In-vivo radioactivity distribution: lung equal to 2.87 (0.46) percent of the dose/g

###

Assay: In-vivo radioactivity distribution experiment using normal mice (Example 2)
Conditions: normal mice, intravenous, 10 min; Example 2 numbering
Task for the reader: assign each of the following compounds its reported In-vivo radioactivity distribution: kidney.

The compound listed as CNc1ccc(C=CC(=O)c2ccc(I)s2)cc1 shows In-vivo radioactivity distribution: kidney equal to 6.59 (1.34) percent of the dose/g

The compound listed as CNc1ccc(C(=O)/C=C/c2ccc(I)cc2)cc1 shows In-vivo radioactivity distribution: kidney equal to 4.56 (0.67) percent of the dose/g

The compound listed as CN(C)c1ccc(C(=O)/C=C/c2ccc(I)cc2)cc1 shows In-vivo radioactivity distribution: kidney equal to 4.51 (1.29) percent of the dose/g

The compound listed as CN(C)c1ccc(C=CC(=O)c2ccc(I)s2)cc1 shows In-vivo radioactivity distribution: kidney equal to 4.66 (0.68) percent of the dose/g
